Target: Fyn (UniProt P06241)
Sequence (P06241 whole entry, looked up): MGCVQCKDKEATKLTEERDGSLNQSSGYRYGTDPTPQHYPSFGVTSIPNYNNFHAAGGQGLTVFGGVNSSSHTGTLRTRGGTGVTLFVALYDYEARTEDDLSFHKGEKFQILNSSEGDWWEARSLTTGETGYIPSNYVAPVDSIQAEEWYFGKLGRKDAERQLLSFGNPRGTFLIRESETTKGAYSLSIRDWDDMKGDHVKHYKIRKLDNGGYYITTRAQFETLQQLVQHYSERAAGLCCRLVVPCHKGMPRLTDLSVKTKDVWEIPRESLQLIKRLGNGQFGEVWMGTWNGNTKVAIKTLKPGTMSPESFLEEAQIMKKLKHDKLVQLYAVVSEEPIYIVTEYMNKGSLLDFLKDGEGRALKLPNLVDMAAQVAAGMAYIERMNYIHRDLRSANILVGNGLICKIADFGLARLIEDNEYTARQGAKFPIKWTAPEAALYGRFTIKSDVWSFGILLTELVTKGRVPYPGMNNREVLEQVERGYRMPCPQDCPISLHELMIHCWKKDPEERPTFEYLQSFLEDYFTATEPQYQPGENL
Test: phosphorylation enrichment, bacterial display (enrichment ratio); higher = better substrate or ligand; peptides without Tyr show the background
PROPERTY_LABEL: phosphorylation enrichment
Reply: number alone, nothing else.

AVLSLYASGST [ACTG2_Y144_R148S] | 0.476
TINPIHEHVGF [CHN1_Y143_Y143H_YF] | 0.335
EGWQVYRLGTR [MISP_Y95_A99T] | 1.78
STSFDYCRVPM [BST2_Y8_YF] | 0.828
GGEEFYVHFVG [KAT8_Y90_R86G_YF] | 0.58

[in] Report phosphorylation enrichment for IGMIIYFARKA [VCAM1_Y718]
[out] 0.481

[in] Report phosphorylation enrichment for QNTGDYCDLFG [PTPN11_Y62_Y63C_YF]
[out] 0.681

[in] Report phosphorylation enrichment for QADVVYVNTQL [MERTK_Y872_I871V]
[out] 0.729

[in] Report phosphorylation enrichment for FADIAYNFRHR [PAH_Y166_G171R_YF]
[out] 0.407

[in] Report phosphorylation enrichment for KAEELYIGVTV [EFHC2_Y509]
[out] 2.06

* * *

Molecular target: Jak2 (UniProt O60674)
Sequence (O60674 whole entry, looked up): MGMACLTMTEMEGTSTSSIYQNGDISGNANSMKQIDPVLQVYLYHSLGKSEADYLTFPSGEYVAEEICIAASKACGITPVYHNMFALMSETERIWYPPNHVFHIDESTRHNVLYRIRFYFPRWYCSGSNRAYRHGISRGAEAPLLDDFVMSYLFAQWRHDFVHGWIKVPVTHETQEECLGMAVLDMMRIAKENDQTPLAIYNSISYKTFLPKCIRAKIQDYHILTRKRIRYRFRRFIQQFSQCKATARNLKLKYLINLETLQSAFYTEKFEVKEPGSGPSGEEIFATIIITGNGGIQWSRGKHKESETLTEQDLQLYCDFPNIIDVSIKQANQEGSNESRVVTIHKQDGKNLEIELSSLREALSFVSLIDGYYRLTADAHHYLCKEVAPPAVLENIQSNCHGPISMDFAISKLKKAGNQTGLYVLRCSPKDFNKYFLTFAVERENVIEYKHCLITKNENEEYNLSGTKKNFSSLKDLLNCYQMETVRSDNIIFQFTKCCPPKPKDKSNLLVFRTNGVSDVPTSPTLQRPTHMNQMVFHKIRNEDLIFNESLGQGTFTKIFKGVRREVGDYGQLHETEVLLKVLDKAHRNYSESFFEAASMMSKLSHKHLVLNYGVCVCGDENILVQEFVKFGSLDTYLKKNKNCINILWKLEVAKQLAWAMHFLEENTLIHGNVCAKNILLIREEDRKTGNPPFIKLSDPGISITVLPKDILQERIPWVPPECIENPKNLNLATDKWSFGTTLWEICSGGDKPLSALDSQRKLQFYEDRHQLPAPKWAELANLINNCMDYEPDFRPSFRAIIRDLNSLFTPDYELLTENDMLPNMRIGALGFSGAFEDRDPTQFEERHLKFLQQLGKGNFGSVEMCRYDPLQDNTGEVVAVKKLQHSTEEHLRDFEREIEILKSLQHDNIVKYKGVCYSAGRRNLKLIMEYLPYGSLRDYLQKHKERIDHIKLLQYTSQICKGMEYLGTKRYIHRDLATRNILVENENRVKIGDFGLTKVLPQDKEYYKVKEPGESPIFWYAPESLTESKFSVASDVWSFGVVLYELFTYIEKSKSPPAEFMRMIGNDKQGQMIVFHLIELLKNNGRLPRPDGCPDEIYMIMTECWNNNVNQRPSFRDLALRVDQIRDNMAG
Experiment: phosphorylation enrichment, bacterial display (enrichment ratio); higher = better substrate or ligand; peptides without Tyr show the background
Label Satisfied when phosphorylation enrichment >= 0.8; otherwise Not satisfied.

Examples with answers:
PDGVEYLKNDP [GRIN3A_Y831] | Satisfied
FAELMYTGFWH [ASS1_Y322_V321M] | Satisfied
ATRDVYNPFET [SCAMP3_Y41_L38R] | Satisfied
LAIERYVVVSK [RHO_Y136_C140S] | Not satisfied
NVTRKYTRQIL [MAP3K2_Y463] | Not satisfied

[in] Given the entry WKGSWYSMRKM [FGB_Y475] , answer whether its phosphorylation enrichment meets or surpasses 0.8.
[out] Satisfied

[in] Given the entry DDKEYYSVHNK [MET_Y1235_Y1230D] , answer whether its phosphorylation enrichment meets or surpasses 0.8.
[out] Satisfied

[in] Given the entry IQTDGYRAPEA [UHMK1_Y197] , answer whether its phosphorylation enrichment meets or surpasses 0.8.
[out] Satisfied

[in] Given the entry FSGQVYRQRRK [TH_Y230_D227G] , answer whether its phosphorylation enrichment meets or surpasses 0.8.
[out] Not satisfied

* * *

Target: c-Src SH2
Test: SH2 binding enrichment of the phosphorylated peptide, bacterial display (enrichment ratio); higher = better substrate or ligand; peptides without Tyr show the background
PROPERTY_LABEL: SH2 binding enrichment
Reply: number alone, nothing else.

Recorded SH2 binding enrichment, per entry:
IYQASYYRRGD [LTK_Y676_R673Q] | 0.412
RKLVDYDSAQH [BIN1_Y150_R154Q] | 0.541
STTSDYQWDFS [MTDH_Y364_V368F] | 0.573
VSTKVYKRFPS [BEST1_Y148_A146K] | 0.656
FTHSDYQFGQR [PKP2_Y166_S169G_YF] | 0.626

[in] Report SH2 binding enrichment for AEMTGYVMTRW [MAPK13_Y182_V184M]
[out] 0.467

[in] Report SH2 binding enrichment for LFSDHYSPSGR [TMPRSS12_Y23_YF]
[out] 0.554

[in] Report SH2 binding enrichment for PDDPDYSLVDD [PSTPIP2_Y323_N322D]
[out] 0.665

[in] Report SH2 binding enrichment for LLANAYIFVVQ [L1CAM_Y418_YF]
[out] 0.396

[in] Report SH2 binding enrichment for GMAHNYRNSSQ [AASS_Y188]
[out] 0.482

[in] Report SH2 binding enrichment for SRFQFYFQQKG [CHKB_Y381]
[out] 0.473

[in] Report SH2 binding enrichment for QADVVYVNTQL [MERTK_Y872_I871V]
[out] 0.718

[in] Report SH2 binding enrichment for RGGDSYGGPPR [RBMX_Y190_R187G]
[out] 0.75

[in] Report SH2 binding enrichment for NVADHYRVYKP [ATP6V0D2_Y271_G272R]
[out] 0.469

[in] Report SH2 binding enrichment for AVAFLYFKSIG [ADGRL4_Y301_V300L_YF]
[out] 0.569

[in] Report SH2 binding enrichment for EILDVYIFLGP [GAA_Y340_G335E]
[out] 0.46

[in] Report SH2 binding enrichment for RFLRGYRQHAY [HLA-A_Y137_D140H]
[out] 0.424

* * *

Biological target: c-Src SH2;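 note: peptide library displayed on the E. coli surface as eCPX fusions, selected cells deep-sequenced, score is each peptide's frequency after selection divided by its frequency in the input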
Assay: SH2 binding enrichment of the phosphorylated peptide, bacterial display (enrichment ratio); higher = better substrate or ligand; peptides without Tyr show the background
Label Satisfied when SH2 binding enrichment >= 0.6; otherwise Not satisfied.

Examples with answers:
QKFMAYLSQGW [HLCS_Y236_G241W] | Satisfied
CLAQRYLIWEC [SCN5A_Y694_R689C] | Satisfied
QNTGDYYDLYG [PTPN11_Y62] | Satisfied

[in] Given the entry GANFEYIIAEK [ECHS1_Y35] , answer whether its SH2 binding enrichment meets or surpasses 0.6.
[out] Not satisfied

[in] Given the entry CQLENYCNGGG [INS_Y108_Y103C] , answer whether its SH2 binding enrichment meets or surpasses 0.6.
[out] Satisfied

[in] Given the entry ASTHIYQIMNH [ITK_Y588_V587I] , answer whether its SH2 binding enrichment meets or surpasses 0.6.
[out] Satisfied

[in] Given the entry VSLEAYCKHKY [RXRA_Y403_A398V] , answer whether its SH2 binding enrichment meets or surpasses 0.6.
[out] Not satisfied

[in] Given the entry HNLNFYKKTTN [FGFR3_Y648_D646N_YF] , answer whether its SH2 binding enrichment meets or surpasses 0.6.
[out] Not satisfied

[in] Given the entry RRSQSYNPTSG [PLEKHA2_Y185_I186N] , answer whether its SH2 binding enrichment meets or surpasses 0.6.
[out] Not satisfied

[in] Given the entry SGETEYNPTEA [NBEAL2_Y2748] , answer whether its SH2 binding enrichment meets or surpasses 0.6.
[out] Not satisfied

* * *

The entries below come with measured phosphorylation enrichment values attached.
Test system: c-Abl (mouse)
Experiment: phosphorylation enrichment, bacterial display (enrichment ratio); higher = better substrate or ligand; peptides without Tyr show the background

VFSATYHPDHW [EFCAB12_Y544_P541S_YF] | 0.676
SAPDSYIRIGN [SLC38A4_Y27_G29R] | 0.483
SGFESYGSSSY [RPA2_Y9] | 0.718
EESREYDRLFE [PIK3R1_Y463_K459E_YF] | 1.07
NGQAVYAACQT [XDH_Y1092] | 3.5

[in] With c-Abl (mouse) as the test system, provide measured phosphorylation enrichment for this sequence: GPKSTYISSAG [GOLGA5_Y62_A67G]
[out] 0.464

[in] With c-Abl (mouse) as the test system, provide measured phosphorylation enrichment for this sequence: IRNRDYDDIDD [TTYH2_Y424_T419I]
[out] 0.649

[in] With c-Abl (mouse) as the test system, provide measured phosphorylation enrichment for this sequence: GEDLSYGDLPP [IRS1_Y151_V154L]
[out] 0.899

* * *

Target: FGFR3 (UniProt P22607)
Sequence (P22607 whole entry, looked up): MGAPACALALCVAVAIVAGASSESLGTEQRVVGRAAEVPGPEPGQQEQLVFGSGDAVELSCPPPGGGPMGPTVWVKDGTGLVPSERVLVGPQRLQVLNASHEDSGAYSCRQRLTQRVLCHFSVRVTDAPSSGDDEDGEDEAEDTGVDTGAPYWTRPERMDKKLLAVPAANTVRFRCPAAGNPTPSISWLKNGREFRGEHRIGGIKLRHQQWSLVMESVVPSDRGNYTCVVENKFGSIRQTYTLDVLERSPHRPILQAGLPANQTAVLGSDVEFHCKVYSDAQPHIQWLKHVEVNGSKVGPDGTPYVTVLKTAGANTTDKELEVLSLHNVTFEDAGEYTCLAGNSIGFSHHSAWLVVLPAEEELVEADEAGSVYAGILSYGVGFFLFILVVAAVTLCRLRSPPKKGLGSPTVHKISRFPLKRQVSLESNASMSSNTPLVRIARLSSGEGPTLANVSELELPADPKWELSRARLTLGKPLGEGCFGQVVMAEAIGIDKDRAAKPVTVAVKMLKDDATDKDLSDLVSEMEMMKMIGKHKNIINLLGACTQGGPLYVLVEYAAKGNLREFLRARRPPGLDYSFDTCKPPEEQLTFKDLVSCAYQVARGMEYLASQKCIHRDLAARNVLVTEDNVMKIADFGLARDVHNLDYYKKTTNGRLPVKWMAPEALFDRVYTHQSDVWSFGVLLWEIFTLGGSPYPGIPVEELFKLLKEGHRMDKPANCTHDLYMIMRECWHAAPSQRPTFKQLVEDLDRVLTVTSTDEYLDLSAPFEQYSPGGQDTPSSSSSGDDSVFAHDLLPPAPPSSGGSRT
Experiment: phosphorylation enrichment, bacterial display (enrichment ratio); higher = better substrate or ligand; peptides without Tyr show the background
Label label 1 when phosphorylation enrichment >= 0.8; otherwise label 0.

Examples with answers:
DDKQPYEKKAA [HMGB1_Y144] | label 0
LARNMYDKEFF [MET_Y1230_D1228N_YF] | label 0
LIHLHYIRKDY [BBS4_Y43] | label 0
FSGIFYKPESL [L2HGDH_Y103_H98Y_YF] | label 0
NYRPGYNNFYN [USH2A_Y467] | label 0

[in] Given the entry SSREGYVSHHN [FAM83B_Y433] , answer whether its phosphorylation enrichment meets or surpasses 0.8.
[out] label 0

[in] Given the entry IRFPPYTDWNQ [ALDH3B2_Y365_H361R_YF] , answer whether its phosphorylation enrichment meets or surpasses 0.8.
[out] label 0

* * *

Target: EPHB1 (UniProt P54762)
Sequence (P54762 whole entry, looked up): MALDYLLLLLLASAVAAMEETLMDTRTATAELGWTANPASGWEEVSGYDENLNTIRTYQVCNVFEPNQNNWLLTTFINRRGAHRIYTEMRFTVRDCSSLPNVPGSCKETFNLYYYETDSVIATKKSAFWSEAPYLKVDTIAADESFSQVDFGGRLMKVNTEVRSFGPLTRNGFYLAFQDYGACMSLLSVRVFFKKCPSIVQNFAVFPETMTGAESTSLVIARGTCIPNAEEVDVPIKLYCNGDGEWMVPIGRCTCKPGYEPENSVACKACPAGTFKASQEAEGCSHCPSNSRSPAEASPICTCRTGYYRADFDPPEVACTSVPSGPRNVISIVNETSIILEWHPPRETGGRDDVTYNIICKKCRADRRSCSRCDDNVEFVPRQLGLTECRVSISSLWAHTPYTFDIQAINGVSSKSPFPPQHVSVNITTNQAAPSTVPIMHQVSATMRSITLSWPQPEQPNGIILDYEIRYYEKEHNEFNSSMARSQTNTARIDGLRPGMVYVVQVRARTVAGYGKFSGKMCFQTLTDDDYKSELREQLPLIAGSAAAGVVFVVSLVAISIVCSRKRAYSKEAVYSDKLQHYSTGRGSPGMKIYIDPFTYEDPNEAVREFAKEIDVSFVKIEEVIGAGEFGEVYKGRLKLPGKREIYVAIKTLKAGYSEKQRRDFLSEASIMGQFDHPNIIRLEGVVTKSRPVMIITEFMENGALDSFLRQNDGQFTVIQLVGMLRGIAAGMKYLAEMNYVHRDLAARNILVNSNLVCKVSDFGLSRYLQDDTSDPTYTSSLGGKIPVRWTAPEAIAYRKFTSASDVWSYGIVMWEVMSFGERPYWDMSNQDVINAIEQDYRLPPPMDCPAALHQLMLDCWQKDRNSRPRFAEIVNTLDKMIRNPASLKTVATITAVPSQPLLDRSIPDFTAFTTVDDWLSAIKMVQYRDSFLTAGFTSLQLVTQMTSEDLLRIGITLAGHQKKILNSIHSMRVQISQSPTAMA
Experiment: phosphorylation enrichment, bacterial display (enrichment ratio); higher = better substrate or ligand; peptides without Tyr show the background
Label yes (1) when phosphorylation enrichment >= 0.5; otherwise no (0).

YKIYRYTLNDN [FN1_Y1975_L1974R] | no (0)
VDSNPYSRLVA [UBA5_Y53_M57V] | yes (1)
KIEGIYARDET [RPL35A_Y34_V33I] | yes (1)
SLVVPYEPPEV [TP53_Y220_V216L] | yes (1)
GHLFACDWISI [BEST1_Y227_Y227C_YF] | no (0)

Please look at the following sequence next.
[in] Given the entry ECKETYHEGEC [PRKN_Y372_A371T] , answer whether its phosphorylation enrichment meets or surpasses 0.5.
[out] yes (1)
